// reported Binding to 1 nM Flk-1, % per item
Molecular target: T1, mouse vascular endothelial growth factor receptor-2 Fc chimera (Flk-1-Fc) (mouse, UniProt P35918 20-762)
T1 construct: Bought from R&D Systems; also called mouse VEGFR-2; not shown: Fc part of the purchased chimera, not specified
T1 sequence (P35918 20-762, change not shown): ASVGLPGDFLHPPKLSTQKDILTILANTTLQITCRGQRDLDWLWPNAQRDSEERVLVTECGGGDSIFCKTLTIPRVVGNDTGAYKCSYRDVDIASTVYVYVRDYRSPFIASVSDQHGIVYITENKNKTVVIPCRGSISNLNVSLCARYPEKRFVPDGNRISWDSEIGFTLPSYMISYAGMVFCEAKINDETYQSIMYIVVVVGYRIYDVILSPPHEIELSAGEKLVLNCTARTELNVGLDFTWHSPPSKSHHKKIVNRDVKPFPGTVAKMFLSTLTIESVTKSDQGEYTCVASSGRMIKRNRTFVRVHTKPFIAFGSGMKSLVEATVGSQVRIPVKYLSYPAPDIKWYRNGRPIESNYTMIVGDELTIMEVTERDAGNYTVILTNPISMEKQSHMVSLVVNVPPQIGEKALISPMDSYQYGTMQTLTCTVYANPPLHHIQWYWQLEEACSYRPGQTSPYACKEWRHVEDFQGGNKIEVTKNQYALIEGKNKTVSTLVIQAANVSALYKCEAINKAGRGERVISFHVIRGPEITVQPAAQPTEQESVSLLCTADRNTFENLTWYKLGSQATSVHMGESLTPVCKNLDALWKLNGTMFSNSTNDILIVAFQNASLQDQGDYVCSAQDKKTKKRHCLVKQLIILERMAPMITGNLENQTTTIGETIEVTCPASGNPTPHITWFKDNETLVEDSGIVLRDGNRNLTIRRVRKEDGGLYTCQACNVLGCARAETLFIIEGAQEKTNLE
Assay: radioactive equilibrium binding assay, 1 nM Flk-1-Fc, % of input bound

binder	Binding to 1 nM Flk-1, %, %
EGE11 (SEQ ID NO 87) (designed binder) EVVAATPTSLLISWRHPHFPTRYYRITYGETGGNSPVQEFTVPLQPPTATISGLKPGVDYTITGYAVTMGKNDRELLTPISINYRT	1
E23 (designed binder, 10Fn3 clone, Del 1-8) EVVAATPTSLLISWRHHPHFPTRYYRITYGETGGNSPVQEFTVPLQPPTATISGLKPGVDYTITGYAVTVHWNGRELMTPISINYRT	7
E14 (designed binder, 10Fn3 clone, Del 1-8) EVVAATPTSLLISWRHPHFPTRYYRITYGETGGNSPVQEFTVPLQPPTATISGLKPGVDYTITGYAVTLERNGQVLFTPISINYRT	11
C12 (designed binder, 10Fn3 clone, Del 1-8) EVVAATPTSLLISWRHPHFPTRYYRITYGETGGNSPVQEFTVPLQPPTATISGLKPGVDYTITGYAVTVERNGRVLSVPISINYRT	20
B10 (designed binder, 10Fn3 clone, Del 1-8) EVVAATPTSLLISWRHPHFPTRYYRITYGETGGNSPVQEFTVPLQPPTATISGLKPGVDYTITGYAVTLERNGRELNTPISINYRT	23
